For each of the sequences below, state its HR.
Tested on: cancer patients
Test Summary: Test Example 4: correlation between vaccination with individual peptides (or peptide sets) and OS, Cox proportional hazards regression
Assay type: in vivo, human
Condition: Table 18; all 2,588 cases; Cox proportional hazards regression, vaccinated vs non-vaccinated, OS
Answers are plain numbers.

Solved entries:
{"Residue String": "AYDFLYNYL (listed as Homo sapiens) [SART2-161]", "Target": "cancer patients", "Measured": 1.0}
{"Residue String": "LLQAEAPRL (listed as Homo sapiens) [SART3-302]", "Target": "cancer patients", "Measured": 0.9}
{"Residue String": "RLAEYQAYI (listed as Homo sapiens) [SART3-309]", "Target": "cancer patients", "Measured": 0.9}
{"Residue String": "QIRPIFSNR (listed as Homo sapiens) [SART3-734]", "Target": "cancer patients", "Measured": 1.0}
{"Residue String": "LYCESVHNF (listed as Homo sapiens) [PAP-213]", "Target": "cancer patients", "Measured": 0.9}
{"Residue String": "DYLRSVLEDF (listed as Homo sapiens) [Lck-488]", "Target": "cancer patients", "Measured": 0.9}
{"Residue String": "ILGELREKV (listed as Homo sapiens) [WHSC2-141]", "Target": "cancer patients", "Measured": 1.0}
{"Residue String": "GIHKQKEKSR (listed as Homo sapiens) [PAP-248]", "Target": "cancer patients", "Measured": 1.0}

Record HR per entry; entries follow.
1. HYRKWIKDTI (listed as Homo sapiens) [PSA-248]
2. DVWSFGILL (listed as Homo sapiens) [Lck-422]
3. ASLDSDPWV (listed as Homo sapiens) [WHSC2-103]
4. NVLHFFNAPL (listed as Homo sapiens) [HNRPL-501]
5. DYSARWNEI (listed as Homo sapiens) [SART2-93]

stdout:
1. 0.9
2. 1.2
3. 1.0
4. 1.0
5. 0.9

* * *

Tested on: anti-peptide IgG in plasma
Test Summary: Test Example 4: peptide-specific IgG titer pre and post vaccination, bead-based multiplexed Luminex assay
Type: in vivo, human
Condition: number of vaccinated patients with positive IgG response
Endpoint: Post vaccination IgG: (positive) patients

{"Residue String": "KYVGIEREM (listed as Homo sapiens) [EZH2-735]", "Measured": "69(51)"}
{"Residue String": "DLLSHAFFA (listed as Homo sapiens) [MAP-432]", "Measured": "375(97)"}
{"Residue String": "RYLTQETNKV (listed as Homo sapiens) [PTHrP-102]", "Measured": "204(99)"}
{"Residue String": "RLAEYQAYI (listed as Homo sapiens) [SART3-309]", "Measured": "328(158)"}

Record Post vaccination IgG: (positive) patients per entry; entries follow.
1. HYRKWIKDTI (listed as Homo sapiens) [PSA-248]
2. ILGELREKV (listed as Homo sapiens) [WHSC2-141]

stdout:
["283(200)", "325(173)"]

stdin: Sample TYSVSFDSL (listed as Homo sapiens) [PSMA-624] — what was its Post vaccination IgG: (positive) patients?
stdout: 101(50)

* * *

Tested on: cancer patients
Test Summary: Test Example 4: correlation between vaccination with individual peptides (or peptide sets) and OS, Cox proportional hazards regression
Format: in vivo, human
Condition: Table 18; all 2,588 cases; median OS of patients under PPV not containing the peptide
For each of the sequences below, state its Non-vaccinate cases (mOS).

{"Residue String": "KLKHYGPGWV (listed as Homo sapiens) [CypB-129]", "Non-vaccinate cases (mOS)": "1458(11.2) M"}
{"Residue String": "RLAEYQAYI (listed as Homo sapiens) [SART3-309]", "Non-vaccinate cases (mOS)": "722(11.1) M"}
{"Residue String": "ALVEFEDVL (listed as Homo sapiens) [HNRPL-140]", "Non-vaccinate cases (mOS)": "850(11.1) M"}
{"Residue String": "QIRPIFSNR (listed as Homo sapiens) [SART3-734]", "Non-vaccinate cases (mOS)": "589(11.3) M"}

stdin: Sample HYRKWIKDTI (listed as Homo sapiens) [PSA-248] — what was its Non-vaccinate cases (mOS)?
stdout: 1,267(11.6) M
